Molecular target: Matrix metalloproteinase-9 (Homo sapiens)
Sequence (P14780 whole entry): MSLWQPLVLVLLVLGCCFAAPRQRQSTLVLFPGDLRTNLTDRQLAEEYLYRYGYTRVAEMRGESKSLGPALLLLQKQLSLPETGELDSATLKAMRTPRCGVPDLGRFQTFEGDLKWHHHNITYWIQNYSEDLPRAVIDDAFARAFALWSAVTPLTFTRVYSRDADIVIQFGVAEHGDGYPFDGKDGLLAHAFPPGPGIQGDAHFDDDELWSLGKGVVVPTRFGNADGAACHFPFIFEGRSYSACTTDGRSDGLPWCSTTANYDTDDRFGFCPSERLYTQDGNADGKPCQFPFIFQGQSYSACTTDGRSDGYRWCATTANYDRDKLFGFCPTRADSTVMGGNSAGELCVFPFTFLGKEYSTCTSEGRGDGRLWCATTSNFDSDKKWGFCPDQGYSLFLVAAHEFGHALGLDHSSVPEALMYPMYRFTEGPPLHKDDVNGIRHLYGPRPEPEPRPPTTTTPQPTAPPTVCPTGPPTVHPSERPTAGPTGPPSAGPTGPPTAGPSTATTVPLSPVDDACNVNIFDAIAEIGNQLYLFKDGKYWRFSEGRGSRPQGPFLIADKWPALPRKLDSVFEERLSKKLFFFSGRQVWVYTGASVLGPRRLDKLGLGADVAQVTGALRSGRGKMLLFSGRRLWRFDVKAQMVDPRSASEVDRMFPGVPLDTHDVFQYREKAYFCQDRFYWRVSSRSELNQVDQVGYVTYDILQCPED
Readout name: IC50 (µM)
Numeric answer only, unit µM assumed.

Qu. Provide IC50, recorded with Matrix metalloproteinase-9 (Homo sapiens), of Cc1cc(COc2ccc([C@]3(C)CCN([C@H](C)C(=O)NO)C3=O)cc2)c2ccccc2n1
Ans. 10.3

----------
Target: 72 kDa type IV collagenase (Homo sapiens)
Readout name: IC50 (nM)
Numeric answer only, unit nM assumed.

Example cases with answers are listed next.
1. CC#CCOc1ccc(S(=O)(=O)CC2(C(=O)NO)CCN(S(=O)(=O)c3c(C)noc3C)CC2)cc1; 664
2. CC#CCOc1ccc(S(=O)(=O)CC2(C(=O)NO)CCN(S(=O)(=O)N3CCCC3)CC2)cc1; 31
3. CC#CCOc1ccc(S(=O)(=O)CC2(C(=O)NO)CCN(c3nc4ccccc4n3C)CC2)cc1; 176
4. Cc1cc(COc2ccc([C@]3(C)CCN([C@H](C)C(=O)NO)C3=O)cc2)c2ccccc2n1; 2050

--- query ---
Qu. Provide IC50, recorded with 72 kDa type IV collagenase (Homo sapiens), of CC#CCOc1ccc(S(=O)(=O)CC2(C(=O)NO)CCN(C(=O)c3c(Cl)cncc3Cl)CC2)cc1
Ans. 183

----------
# IC50 per entry for UniProt:P45452
Numeric answer only, unit nM assumed.

1) CC#CCOc1ccc(S(=O)(=O)CC2(C(=O)NO)CCN(S(=O)(=O)C3CC3)CC2)cc1; 1160
2) CC#CCOc1ccc(S(=O)(=O)CC2(C(=O)NO)CCN(c3ccncc3)CC2)cc1; 2040
3) CC#CCOc1ccc(S(=O)(=O)CC2(C(=O)NO)CCN(c3ccccn3)CC2)cc1; 205
4) CC#CCOc1ccc(S(=O)(=O)CC2(C(=O)NO)CCN(c3nc4ccccc4o3)CC2)cc1; 56
5) CC#CCOc1ccc(S(=O)(=O)CC2(C(=O)NO)CCN(S(=O)(=O)N3CCCC3)CC2)cc1; 117

--- query ---
Qu. Return IC50 (reported value) for this molecule: CC#CCOc1ccc(S(=O)(=O)CC2(C(=O)NO)CCN(S(=O)(=O)C(C)CN3CCOCC3)CC2)cc1 (stereo unspecified)
Ans. 130

----------
# pIC50 per entry for 72 kDa type IV collagenase (Homo sapiens, UniProt P08253)
The scale used: pIC50 is minus the common logarithm of the concentration in molar units.

Example cases with answers are listed next.
1. CC#CCOc1ccc(S(=O)(=O)CC2(C(=O)NO)CCN(S(=O)(=O)c3cn(C)c(C)n3)CC2)cc1; 7.72
2. CC#CCOc1ccc(S(=O)(=O)CC2(C(=O)NO)CCN(Cc3c(Cl)cncc3Cl)CC2)cc1; 6.26

Qu. Provide pIC50, recorded with 72 kDa type IV collagenase (Homo sapiens, UniProt P08253), of CC#CCOc1ccc(S(=O)(=O)CC2(C(=O)NO)CCN(S(=O)(=O)c3ccc(Cl)s3)CC2)cc1
Sequence (P08253 whole entry): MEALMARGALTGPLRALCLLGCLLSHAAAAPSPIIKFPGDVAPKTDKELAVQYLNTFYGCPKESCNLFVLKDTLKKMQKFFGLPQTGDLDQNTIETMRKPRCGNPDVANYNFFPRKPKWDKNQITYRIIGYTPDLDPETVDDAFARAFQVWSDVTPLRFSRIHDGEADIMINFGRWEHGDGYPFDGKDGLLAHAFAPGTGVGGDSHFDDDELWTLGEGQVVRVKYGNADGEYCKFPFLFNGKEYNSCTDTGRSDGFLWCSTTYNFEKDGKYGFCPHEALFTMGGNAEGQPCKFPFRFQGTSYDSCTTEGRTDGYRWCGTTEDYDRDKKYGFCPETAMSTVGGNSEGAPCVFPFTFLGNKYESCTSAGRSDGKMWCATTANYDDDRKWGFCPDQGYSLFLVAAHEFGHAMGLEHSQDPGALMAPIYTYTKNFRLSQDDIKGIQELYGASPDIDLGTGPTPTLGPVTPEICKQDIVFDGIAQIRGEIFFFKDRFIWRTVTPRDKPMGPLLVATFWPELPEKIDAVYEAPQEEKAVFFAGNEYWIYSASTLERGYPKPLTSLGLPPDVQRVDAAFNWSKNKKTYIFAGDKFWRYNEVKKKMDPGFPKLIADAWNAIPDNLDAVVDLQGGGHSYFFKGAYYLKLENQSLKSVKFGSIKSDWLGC
Ans. 7.48

Qu. Provide pIC50, recorded with 72 kDa type IV collagenase (Homo sapiens, UniProt P08253), of CC#CCOc1ccc(S(=O)(=O)CC2(C(=O)NO)CCN(S(=O)(=O)C(C)CN3CCOCC3)CC2)cc1 (centres undefined)
Ans. 7.43

Qu. Provide pIC50, recorded with 72 kDa type IV collagenase (Homo sapiens, UniProt P08253), of CC#CCOc1ccc(S(=O)(=O)CC2(C(=O)NO)CCN(S(=O)(=O)N3CCCCC3)CC2)cc1
Ans. 7.29

Qu. Provide pIC50, recorded with 72 kDa type IV collagenase (Homo sapiens, UniProt P08253), of CC#CCOc1ccc(S(=O)(=O)CC2(C(=O)NO)CCN(S(=O)(=O)Cc3ccncc3)CC2)cc1
Ans. 7.09

Qu. Provide pIC50, recorded with 72 kDa type IV collagenase (Homo sapiens, UniProt P08253), of CC#CCOc1ccc(S(=O)(=O)CC2(C(=O)NO)CCN(c3ccncc3)CC2)cc1
Ans. 5.69

Qu. Provide pIC50, recorded with 72 kDa type IV collagenase (Homo sapiens, UniProt P08253), of CC#CCOc1ccc(S(=O)(=O)CC2(C(=O)NO)CCN(c3nc4ccccc4o3)CC2)cc1
Ans. 7.40

Qu. Provide pIC50, recorded with 72 kDa type IV collagenase (Homo sapiens, UniProt P08253), of CC#CCOc1ccc(S(=O)(=O)CC2(C(=O)NO)CCN(S(=O)(=O)N3CCC[C@H]3COC)CC2)cc1
Ans. 7.24

----------
Target: Disintegrin and metalloproteinase domain-containing protein 17 (Homo sapiens, UniProt P78536)
Sequence (P78536 whole entry, the tested form may be a part): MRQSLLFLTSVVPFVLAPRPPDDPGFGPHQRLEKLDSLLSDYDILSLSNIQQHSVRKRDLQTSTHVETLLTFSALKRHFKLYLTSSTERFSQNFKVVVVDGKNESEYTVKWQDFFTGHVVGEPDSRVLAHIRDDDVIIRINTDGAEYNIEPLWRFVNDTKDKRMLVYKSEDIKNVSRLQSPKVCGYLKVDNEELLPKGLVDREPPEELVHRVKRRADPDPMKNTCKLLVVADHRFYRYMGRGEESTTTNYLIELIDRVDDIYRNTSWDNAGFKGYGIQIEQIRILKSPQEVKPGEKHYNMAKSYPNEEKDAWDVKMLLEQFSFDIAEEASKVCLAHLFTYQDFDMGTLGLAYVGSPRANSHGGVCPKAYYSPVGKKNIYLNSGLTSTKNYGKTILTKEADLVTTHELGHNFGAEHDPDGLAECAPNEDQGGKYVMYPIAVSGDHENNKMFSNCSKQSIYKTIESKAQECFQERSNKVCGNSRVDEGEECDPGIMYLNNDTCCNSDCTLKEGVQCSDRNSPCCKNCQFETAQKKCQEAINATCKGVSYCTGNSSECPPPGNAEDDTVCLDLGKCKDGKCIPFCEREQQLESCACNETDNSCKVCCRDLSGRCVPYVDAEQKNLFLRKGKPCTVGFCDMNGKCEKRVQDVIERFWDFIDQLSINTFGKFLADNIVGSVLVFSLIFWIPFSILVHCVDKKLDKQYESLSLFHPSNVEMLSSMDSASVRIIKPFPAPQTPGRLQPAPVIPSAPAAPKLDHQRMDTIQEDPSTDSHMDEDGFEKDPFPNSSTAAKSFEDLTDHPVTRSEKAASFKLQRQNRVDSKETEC
Assay: Inhibition of TACE
Readout name: IC50

Example cases with answers are listed next.
1) CC#CCOc1ccc(S(=O)(=O)CC2(C(=O)NO)CCN(S(=O)(=O)CC3CCCCC3)CC2)cc1; < 1 nM
2) CC#CCOc1ccc(S(=O)(=O)CC2(C(=O)NO)CCN(S(=O)(=O)c3nc(C)sc3C)CC2)cc1; < 1 nM

--- query ---
Qu. Return IC50 (reported value) for this compound: CC#CCOc1ccc(S(=O)(=O)CC2(C(=O)NO)CCN(S(=O)(=O)C(C)(C)C)CC2)cc1
Ans. < 1 nM
